Molecular target: SpSla1-D1-D2
Assay: SPOT peptide array binding signal intensity (averaged, normalized) (arbitrary units (background-subtracted, floor 0; scale differs between SH3 domains)); higher = stronger binding of the SH3 domain to the peptide
EXPERIMENTAL ENDPOINT: SPOT peptide array binding signal intensity

In the examples that follow, each entry is paired with its recorded SPOT peptide array binding signal intensity.
BINDER	RESULT
RLSRLLLSLPPESFT	≤ 0
IAPIPMPKPNPTHIS	≤ 0
SSSSTPPTLPPRRIE	≤ 0
ATKSASPTLPTRRSR	334
NRARYLPQNPDIIAG	≤ 0

For reference, reported SPOT peptide array binding signal intensity for NNQRRKPLLLNIGDH stands at ≤ 0

For reference, reported SPOT peptide array binding signal intensity for HGKRRAPLLLAKLDV stands at ≤ 0

For reference, reported SPOT peptide array binding signal intensity for VQKRKLPLPGSIASA stands at 16.2

For reference, reported SPOT peptide array binding signal intensity for KRRTSLFPWLHKPGI stands at ≤ 0

For reference, reported SPOT peptide array binding signal intensity for KLSRGRYGLPLSSRP stands at ≤ 0

For reference, reported SPOT peptide array binding signal intensity for LSKRLPLRFPEHTSS stands at ≤ 0

For reference, reported SPOT peptide array binding signal intensity for VPPPMQPPPIESSNL stands at ≤ 0

For reference, reported SPOT peptide array binding signal intensity for RSVKRPRRAPRPVVS stands at ≤ 0

For reference, reported SPOT peptide array binding signal intensity for RLPAPPPPPRRGPAP stands at 339

For reference, reported SPOT peptide array binding signal intensity for TPRLSLPRLPNKHHW stands at 7

For reference, reported SPOT peptide array binding signal intensity for AVPPPPPPPPLPESL stands at 1

For reference, reported SPOT peptide array binding signal intensity for RRTRLRPPTPLSQLL stands at 53

Where do the numbers come from? From the supplement of paper PMC4466140.
